Recorded max response values for a group of compounds are listed next.
# TARGET OF ASSAY: Peroxisome proliferator-activated receptor alpha (Homo sapiens)
# TEST METHOD NOTES: qHTS assay for small molecule agonists of the peroxisome proliferator-activated receptor alpha (PPARalpha) signaling pathway (AID 651778); note: % of control where 0% means no effect
# PARTICULARS: PathHunter PPARalpha complementation, chemiluminescence, 6 h; stronger effect = higher value
Output spec: scalar in %, unitless text.

INSERT INTO assay_data (compound, target_of_assay, endpoint_name, value) VALUES
  ('CC1(C)CC(N)CC(C)(CN)C1 (centres undefined)', 'Peroxisome proliferator-activated receptor alpha (Homo sapiens)', 'max response', -3.48);

What is its max response for Peroxisome proliferator-activated receptor alpha (Homo sapiens)? Entry: `CCCCCCCCCCCC[N+](C)(C)C` -0.842

What is its max response for Peroxisome proliferator-activated receptor alpha (Homo sapiens)? Entry: `CCOCCOCCOCCO` -1.08

What is its max response for Peroxisome proliferator-activated receptor alpha (Homo sapiens)? Entry: `CCCCOCCOCCO` -0.568

What is its max response for Peroxisome proliferator-activated receptor alpha (Homo sapiens)? Entry: `OC1CCCCCCCCCCC1` -2.43

What is its max response for Peroxisome proliferator-activated receptor alpha (Homo sapiens)? Entry: `CC(C)(C)c1n[nH]c(=O)n(N)c1=O` 0.89

What is its max response for Peroxisome proliferator-activated receptor alpha (Homo sapiens)? Entry: `O=C1CCC(C2CCCCC2)CC1` -1.16

What is its max response for Peroxisome proliferator-activated receptor alpha (Homo sapiens)? Entry: `C[Si]1(C)O[Si](C)(C)O[Si](C)(C)O1` 0.478

What is its max response for Peroxisome proliferator-activated receptor alpha (Homo sapiens)? Entry: `O=C1CCCC/C=C/CCCCCCCCCO1` 11.1
